The threshold is 40 °C. Values of melting point beneath it are tagged Y; values meeting or exceeding it are tagged N.

| Molecule | Category |
| --- | --- |
| O=C(O)CCC(=O)O | N |
| ICI | Y |
| Cc1ccco1 | Y |

Consider `FC(Cl)(Cl)C(F)(Cl)Cl` . Does its melting point lie strictly below 40 °C?
Y

Entry `CCN1C[C@]2(COC)[C@H](O)C[C@H](OC)[C@]34C1[C@H]([C@H](OC)[C@H]23)[C@]1(OC(C)=O)[C@H]2[C@@H](OC(=O)c3ccccc3)[C@](O)(C[C@H]24)[C@@H](OC)[C@@H]1O` please
N

Follow-up item: C#CC(C)N(C(=O)CCl)c1ccccc1 (stereo unspecified)
N

---

Reported values of melting point for individual entries
In your response, the unit should come after the numeric value.

| Mol | melting point |
| --- | --- |
| CCCCC(=O)O[C@]1(C(=O)CO)CC[C@H]2[C@@H]3CCC4=CC(=O)C=C[C@]4(C)[C@H]3[C@@H](O)C[C@@]21C | 212 °C |

I am curious: what melting point value has been reported for `C[C@]12C[C@H]3S[C@H]3C[C@@H]1CC[C@@H]1[C@@H]2CC[C@]2(C)[C@@H](O)CC[C@@H]12` ?
127 °C

Similarly, `O=C1OCCO1` ?
39.5 °C

Request: `C=CCNS(=O)(=O)c1cc(S(N)(=O)=O)c(Cl)cc1/N=C/C=C(/C)O`
206 °C

---

Cut-off 40 °C on melting point, inclusive. At or above means Criterion met; below means Criterion not met.

Reference set, count: 3
| Molecule | Category |
| --- | --- |
| Cc1ccc2cc(C)ccc2c1 | Criterion met |
| NCCCCCCCCCCC(=O)O | Criterion met |
| O=[N+]([O-])c1ccc(Oc2ccc(Cl)cc2Cl)cc1 | Criterion met |

Determine whether this molecule has melting point no lower than 40 °C: `CCC(C)=C(C)C`
Criterion not met

Similarly, `CC(C)=NOCCOC(=O)[C@@H](C)Oc1ccc(Oc2cnc3cc(Cl)ccc3n2)cc1` ?
Criterion met

// same read-out, input: `CCCC(=O)c1ccccc1O`
Criterion not met

# iterate: CCN(CC)C(=O)C1CN2CCc3cc(OC)c(OC)cc3C2CC1OC(C)=O (stereo unspecified)
Criterion met

Now consider `CCCCC(=O)N(C)C` and answer again.
Criterion not met

Next entry: `O=S(=O)(O)CCCN1CCOCC1`
Criterion met

---

# Condition notes: fish
Ranges used to classify log10 biotransformation half-life (days): lower band (below -0.3), central band (-0.3 to below 0.9), upper band (0.9 or more)

Look over these answered cases.
| Molecule | Category |
| --- | --- |
| O=[N+]([O-])c1cc(Cl)cc(Cl)c1 | central band |
| Oc1c(C2CCCCC2)cccc1C1CCCCC1 | central band |
| Cc1cccc(C)c1C | central band |

Hi there! Could you help me figure out the category for OC(c1ccccc1)c1ccc(Cl)cc1 (stereo not given) please?
lower band

One more molecule: `CN(C)c1ccc(C(=O)c2ccc(N(C)C)cc2)cc1`
lower band

Next record, please: `CCOP(=S)(OCC)SCCS(=O)(=O)CC`
lower band

---

Assay metric: log10 vapour pressure (mmHg)
Give the value as a plain number.

| Compound | Assay metric | Quantitative readout |
| --- | --- | --- |
| CCCC(C)=O | log10 vapour pressure (mmHg) | 1.55 |

Requested read-out: log10 vapour pressure (mmHg). Entry: `O=[N+]([O-])c1ccc(O)c([N+](=O)[O-])c1`
-3.41

---

# Condition notes: fish
Note to self: class labels come from recorded log10 biotransformation half-life (days), ranges listed here: lower range: < -0.5; middle range: ≥ -0.5 and < 1; upper range: ≥ 1

Below are worked cases with known answers.
| Molecule | Category |
| --- | --- |
| CCCCCCCCC(C)C | middle range |
| CC1CCCCC1 | middle range |
| C=C(C)c1ccccc1 | lower range |
| CCCCOC(=O)c1ccccc1C(=O)OCc1ccccc1 | lower range |
| C=CCCC(CC)CCCC (stereo not given) | middle range |
| Clc1cc2c(c(Cl)c1Cl)Oc1c(cc(Cl)c(Cl)c1Cl)O2 | upper range |
| Oc1c(Cl)cc(Cl)cc1Cl | lower range |
| ClC1=C(Cl)C2(Cl)C3C(Cl)C(Cl)CC3C1(Cl)C2(Cl)Cl (stereo not given) | upper range |
| COc1cccc([N+](=O)[O-])c1 | lower range |
| C=CC(Cl)CCl (stereo not given) | lower range |

Where would `Nc1cccc([N+](=O)[O-])c1` land among the classes by reported log10 biotransformation half-life (days)?
lower range

Try this molecule next: `CC(C)(C)c1cc(C(C)(C)C)c(O)c(C(C)(C)C)c1`
upper range

---

Parameter boiling point: see the listing below.
Report the figure in °C without appending any unit label.

Name the reported boiling point value associated with the molecule `FC(Cl)=C(F)Cl`
21.1

Now consider `Cc1ccccc1C(=O)c1ccccc1` and answer again.
308

---

Entries get a class label from measured melting point. See ranges: low = under 60 °C, mid = from 60 °C up to 100 °C, high = 100 °C and over

Known results for compounds:
| Compound | Category |
| --- | --- |
| O=C(Oc1ccccc1)c1ccccc1C(=O)Oc1ccccc1 | mid |
| C1=COCCC1 | low |
| OC1CCCC1C1CCCC1 (stereo not given) | low |
| C(=Nc1ccccc1)Nc1ccccc1 | high |
| B1Oc2ccccc2O1 | low |
| CCNC(=O)Nc1ncc([N+](=O)[O-])s1 | high |

State the band of `O=C(Nc1cccc2ccccc12)Nc1cccc2ccccc12`
high

Proceed to `CC/C=C/C=C/C=O`
mid

---

The molecules listed here are annotated with their melting point.
Reply with just the number (in °C).

A selection of reference data follows.
| Molecule | Quantitative readout |
| --- | --- |
| CN1CCC(N(Cc2ccccc2)c2ccccc2)CC1 | 115 |
| ClC1=C(Cl)C2(Cl)C3C4OC4C(Cl)C3C1(Cl)C2(Cl)Cl (stereo not given) | 160 |
| Cc1ccc(N)c(C)c1 | -14.3 |

Find the recorded melting point belonging to `FC(Cl)(Cl)c1ccccc1` and report it.
-26.8

Entry to check: `Cl.NCc1ccccc1`
262

Same question for CCCC(=NOCC)C1=C(O)CC(C2CCCSC2)CC1=O (stereo not given) please.
41

Next molecule: `Cc1ccc(C(C)(C)C)c(O)c1`
46.5

Next: `O=Cc1cccc2ccccc12`
33.5

Ok, now `CN=C(O)/C(=N/OC)c1ccccc1Oc1ccccc1`
88

Now consider CCC(C(N)=O)n1nc2ccccc2n1 (stereo not given) .
128

---

Class assignment keyed on log10 vapour pressure (mmHg), ranges bottom end: < -5; midrange: ≥ -5 and < 0.7; top end: ≥ 0.7

Assign a category based on measured log10 vapour pressure (mmHg) for `CCN(Cc1c(F)cccc1Cl)c1c([N+](=O)[O-])cc(C(F)(F)F)cc1[N+](=O)[O-]` and give only the class name.
bottom end

Proceed to `CCCCCCCCCCCCCCCCCCCCCCCCCCCC`
bottom end

Likewise for `Cc1cccs1` ?
top end

Same for `FC(F)(F)C(F)(F)Cl`
top end

Let us now turn to `Nc1ccccc1[N+](=O)[O-]`
midrange

---

Attribute: boiling point
Response body: numeric value in °C, unit text excluded.

Look over these answered cases.
| Compound | Quantitative readout |
| --- | --- |
| Brc1ccc2ncccc2c1 | 281 |
| c1ccc2nncnc2c1 | 238 |

What measured boiling point goes with `c1cc(-c2ccncc2)ccn1` ?
305

How about `CO[Si](C)(OC)OC` ?
102

Try this compound next: `CCCC=CC(=O)O`
216

Moving on to the next compound: `O=C1C=CCCC1`
170

Please answer likewise for `C=CCc1cc(C)ccc1O`
237

Entry to check: `c1ccc2c(c1)ccc1[nH]c3ccccc3c12`
448

Also `CC(c1ccccc1)c1ccccc1` ?
273

Would you kindly repeat that for `CC(C)[C@@H](Br)C(=O)O` ?
230

Please do the same for `O=[N+]([O-])c1ccc(-c2ccccc2)cc1` as well.
340

Same for `c1ccc([As](c2ccccc2)c2ccccc2)cc1`
360

Would you kindly repeat that for `ClC(Cl)C(Cl)(Cl)Cl` ?
160

---

Each record here notes measured melting point.
Note: state the figure and append the unit.

Below, each entry is followed by its recorded melting point result.
| Compound | Result |
| --- | --- |
| CN1C(=O)CN=C(c2ccccc2)c2cc([N+](=O)[O-])ccc21 | 82 °C |
| CCCCCCCCCCCCCCCCCC(=O)OCC | 33 °C |
| C=CCc1cc(OC)c2c(c1OC)OCO2 | 29.5 °C |
| CCC(C(=O)O)c1ccc(N2Cc3ccccc3C2=O)cc1 (centres undefined) | 183 °C |
| COc1ccnc2ccccc12 | 41 °C |
| CC(C)(C)OOC(C)(C)C | -40 °C |

Using the record for `Nc1ccc2c(c1N)C(=O)c1ccccc1C2=O` , report its melting point.
290 °C

Query `BrCCCCOc1ccccc1` next
41 °C

Attribution: the OPERA property sets (Mansouri et al. 2018)
